Sourced from ChEMBL document CHEMBL4680243

Experiment: Cytotoxicity against MDCK cells assessed as reduction in cell viability measured after 72 hrs by MTS assay
Assay type: cell-based, Canis lupus familiaris
Settings: dog
// boundary case: CC50 at 72 h equal to 50 µM maps to 0 (no); strictly smaller maps to 1 (yes)

Answered examples (5):
# smiles_str, label_class
data = [
    ("COC(=O)C[C@H](NC(=O)OC(C)(C)C)C(=O)N(Cc1ccc(F)cc1)C1(C(=O)NCc2ccccc2)CCN(Cc2ccccc2)CC1", "0 (no)"),
    ("COC(=O)C[C@H](NC(=O)OC(C)(C)C)C(=O)N(Cc1ccc(F)cc1)C1(C(=O)NC2CCCCC2)CCN(Cc2ccccc2)CC1", "1 (yes)"),
    ("COC(=O)C[C@H](NC(=O)OC(C)(C)C)C(=O)N(Cc1ccc(F)cc1)C1(C(=O)NCc2ccccc2)CCN(CCc2ccccc2)CC1", "1 (yes)"),
    ("COC(=O)CCC(=O)N(Cc1ccc(F)cc1)C1(C(=O)NCc2ccccc2)CCN(Cc2ccccc2)CC1", "1 (yes)"),
    ("COC(=O)C[C@H](NC(=O)OC(C)(C)C)C(=O)N(Cc1ccc(F)c(F)c1)C1(C(=O)NCc2ccccc2)CCN(Cc2ccccc2)CC1", "0 (no)"),
]

Please determine if COC(=O)C[C@H](NC(=O)OC(C)(C)C)C(=O)N(Cc1ccc(F)cc1)C(C)(C)C(=O)NCc1ccccc1 is below 50 µM in terms of CC50 at 72 h.
1 (yes)

Please determine if COC(=O)C[C@H](NC(=O)OC(C)(C)C)C(=O)N(Cc1cccc(F)c1)C1(C(=O)NCc2ccccc2)CCN(Cc2ccccc2)CC1 is below 50 µM in terms of CC50 at 72 h.
0 (no)

----------
Assay: Selectivity index, ratio of CC50 for MDCK cells to EC50 for antiviral activity against Influenza A virus (A/Puerto Rico/8/1934(H1N1)) infected in MDCK cells
Format: toxicity, cell-based
Settings: dog, read-out: Ratio CC50/EC50
result_type: selectivity ratio

Some solved cases for reference:
# smiles_str, test_value
records = [
    ("COC(=O)C[C@H](NC(=O)OCc1ccccc1)C(=O)N(C1CC1)C1(C(=O)NCc2ccccc2)CCN(Cc2ccccc2)CC1", 40),
    ("COC(=O)C[C@H](NC(=O)OC(C)(C)C)C(=O)N(Cc1cccc(F)c1)C1(C(=O)NCc2ccccc2)CCN(Cc2ccccc2)CC1", "≤ 10"),
]

Next compound, selectivity ratio to be filled in.
Quick one: selectivity ratio of COC(=O)C[C@H](NC(=O)OC(C)(C)C)C(=O)N(Cc1ccccc1F)C1(C(=O)NCc2ccccc2)CCN(Cc2ccccc2)CC1 ?
≤ 10

----------
Each entry below lists one item and its recorded pEC50 value.
System: Influenza A virus
Assay: Antiviral activity against Influenza A virus (A/PR 8/34 (H1N1)) infected in MDCK cells assessed as reduction in virus-induced cytopathic effect measured after 72 hrs by microscopic analysis
Format: functional, organism-based
Conditions: A/Puerto Rico/8/1934(H1N1)
API: returns pEC50 as number; meaning -log10 of concentration in mol/L.

Some solved cases for reference:
# compound, measured_target, pEC50
records = [
    ("COC(=O)C[C@H](NC(=O)OC(C)(C)C)C(=O)N(Cc1ccccc1)C1(C(=O)NCc2ccccc2)CCN(Cc2ccccc2)CC1", "Influenza A virus", 5.03),
    ("CC[C@H](C)[C@H](NC(=O)OCc1ccccc1)C(=O)N(C1CC1)C1(C(=O)NC(C)(C)C)CCN(Cc2ccccc2)CC1", "Influenza A virus", 5.37),
    ("NC(=O)c1ncn([C@@H]2O[C@H](CO)[C@@H](O)[C@H]2O)n1 [RIBAVIRIN]", "Influenza A virus", 4.66),
]

Next compound, pEC50 to be filled in.
Quick one: pEC50 of COC(=O)C[C@H](NC(=O)OC(C)(C)C)C(=O)N(Cc1ccc(F)cc1)C1(C(=O)NCc2ccccc2)CCN(C)CC1 ?
4.44
